Test system: human Duchenne muscular dystrophy (hDMD) myoblast cells
Test: Calcium release, SR calcium leak and SOCE in Fluo-4/AM-loaded hDMD myoblasts (CPA protocol)
Format: cell-based
Details: 30 uM, CPA in Ca2+-free solution
Protocol: Parameters measured are A, the peak CPA-induced calcium transit (F/F0); B, the maximum rate of rise of CPA-induced calcium transit (+ΔF/s); C, the maximum rate of decline of CPA-induced calcium transit (−ΔF/s); D, the integrated CPA-induced calcium transit (F.s); and E, the SOCE-induced calcium transit (F/F0). […] Uncoated coverslips were coated with gelatin and hDMD cells seeded at ˜40-60% confluency 24 hours prior to fluorescence experiments. […]
Returns yes (1) if the recorded Integrated CPA-Induced CaT (area under the curve) (% Reduction in Peak A) is greater than or equal to 20%, and no (0) otherwise.

Use these answered entries as a reference point.
compound="COc1cnc2c(c1)CN(Cc1ccc(C(=O)O)cc1)CCS2 [Example 13]" target_or_test_system="human Duchenne muscular dystrophy (hDMD) myoblast cells" category_label="yes (1)"
compound="COc1cc2c(cn1)SCCN(Cc1ccc(C(=O)O)cc1)C2 [Example 2]" target_or_test_system="human Duchenne muscular dystrophy (hDMD) myoblast cells" category_label="yes (1)"
compound="COc1ccc2c(n1)CN(Cc1ccc(C(=O)O)cc1)CCS2 [Example 9]" target_or_test_system="human Duchenne muscular dystrophy (hDMD) myoblast cells" category_label="no (0)"
compound="COc1ccc2c(c1)CN(C)CCS2 [Example S107, reference compound]" target_or_test_system="human Duchenne muscular dystrophy (hDMD) myoblast cells" category_label="yes (1)"

Problem: Could you please find out whether COc1ncc2c(n1)CN(Cc1ccc(C(=O)O)cc1)CCS2 [Example 17] has Integrated CPA-Induced CaT (area under the curve) (% Reduction in Peak A) that meets 20% or exceeds it?
Solution: yes (1)
